# Test system: MDA-MB-468 breast cancer cell line
# PROTOCOL TEXT: NCI antiproliferative screening, 5-dose
# Type: cell-based
# PROTOCOL CONDITIONS: Homo sapiens, concentration producing 50% inhibition, mean of duplicate experiments
MEASUREMENT LABEL: pIC50
pIC50 (log units): -log10 of the concentration in mol/L.

Please look up its pIC50: O=C(Nc1cccc(-n2ccc3c(NC(=O)c4ccccc4)nccc32)c1)c1ccc(N2CCOCC2)c(C(F)(F)F)c1 [KIST101029, reference compound] 7.52

----------
# Tested on: MCF7 breast cancer cell line
# PROTOCOL TEXT: NCI antiproliferative screening, 5-dose
# Type: cell-based
# PROTOCOL CONDITIONS: concentration producing 50% inhibition, mean of duplicate experiments
# Protocol: Compounds 1r and KIST101029 were tested at the National Cancer Institute (NCI, Bethesda, MD) following their standard protocol [https://dtp.cancer.gov/discovery_development/nci-60/methodology.htm]. Due to over-expression of FMS kinase in certain types of tumours such as ovarian, prostate, and breast[5–7] cancers, we decided to test the antiproliferative activity of compound 1r against a panel of six ovarian, two prostate, and five breast cancer cell lines. […]
MEASUREMENT LABEL: IC50

Observed IC50 on MCF7 breast cancer cell line for Nc1nccc2c1ccn2-c1cccc(NC(=O)c2ccc(N3CCOCC3)c(C(F)(F)F)c2)c1 , please. 150 nM
